Assay: NCI Yeast Anticancer Drug Screen. Data for the mgt1 strain (AID 153)
Settings: S. cerevisiae mgt1 mutant growth inhibition; at 33.0 µM; hits give high values
The panel holds about 79,000 compounds, 15% with a hit somewhere; the sample as a whole holds those more often.
// reported growth inhibition per item
// units = %; emit number, no label

// growth inhibition lookup, key: COc1oc(C(=O)NC2CCCCC2)c(-c2ccc(Cl)cc2)c1S(=O)(=O)c1ccccc1 89

----------
Readings of growth inhibition for the listed compounds
Experiment: NCI Yeast Anticancer Drug Screen. Data for the cln2 rad14 strain (AID 165);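 note: 0% = growth equal to vehicle treated cultures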
Conditions: S. cerevisiae cln2 rad14 strain, at 5.0 µM (retest, dose inferred, filed as 0.5), hits give high values
About 79,000 compounds went through this panel and 15% of them were active in at least one assay; those are over-represented in the sample as a whole.
# unit: % | format: bare number

See these solved cases before continuing.
[[record]]
compound = "CC(C)/C(Cl)=N\\OC(=O)Nc1ccc(F)cc1F"
recorded_endpoint = "growth inhibition"
unit_abbrev = "%"
recorded_value = -1

[[record]]
compound = "O=C(O)c1cc2ccccc2c2c1C(=O)c1ccccc1-2"
recorded_endpoint = "growth inhibition"
unit_abbrev = "%"
recorded_value = 45

[[record]]
compound = "O=[N+]([O-])c1cc(F)c(F)cc1Sc1cc(F)c(F)cc1[N+](=O)[O-]"
recorded_endpoint = "growth inhibition"
unit_abbrev = "%"
recorded_value = 27


Reported growth inhibition for O/N=C\c1c(O)ccc2ccccc12 : what is it? -4

Also C=C1CCC(O)C/C1=C/C=C1\CCCC2(C)C1CCC2C(C)CCCC(C)C (configuration not stated) ? 9

Try this compound next: Cc1cccc2c1nc1ccc(Cl)cc1[n+]2C 4

Same lookup for Nc1cc(N)c(N=Nc2cccc3c(S(=O)(=O)O)cccc23)cc1N=Nc1cc([N+](=O)[O-])ccc1O , please. 33

Now the compound N#CC(C#N)=NNc1ccc(S(=O)(=O)O)cc1 0

Queued: CCC(C)NC1=NCC(C)S1 (configuration not stated) 44

What do we get for CC(C)CN(CC(C)C)C(=O)c1ccc(Cl)c(Cl)c1 ? -29

What do we get for COC(=O)Oc1cc(Cl)c(Cl)cc1Cl ? 3

And the next one, Oc1ccc(SCc2ccc(NCc3ccccc3)cc2)cc1 ? 38
